Reference source: the NIST ThermoML archive (doi:10.1021/je700224j)

This listing pairs compounds with measured mass density.
- EXPERIMENTAL_SETUP: 373.33 K; 40000 kPa; Liquid

COMPOUND: CCCC[n+]1ccn(C)c1.O=S(=O)([N-]S(=O)(=O)C(F)(F)F)C(F)(F)F
mass density [kg/m3]: 1400.4

COMPOUND: CCCCn1cc[n+](C)c1.F[B-](F)(F)F [1-butyl-3-methylimidazolium tetrafluoroborate]
mass density [kg/m3]: 1166.1

COMPOUND: CCn1cc[n+](C)c1.O=S(=O)([N-]S(=O)(=O)C(F)(F)F)C(F)(F)F
mass density [kg/m3]: 1468.7

COMPOUND: CCCCn1cc[n+](C)c1.F[P-](F)(F)(F)(F)F [1-butyl-3-methylimidazolium hexafluorophosphate]
mass density [kg/m3]: 1323.3

* * *

- EXPERIMENTAL_SETUP: 322.3 K; 10000 kPa; Liquid

COMPOUND: CCCCn1cc[n+](C)c1.F[P-](F)(F)(F)(F)F [1-butyl-3-methylimidazolium hexafluorophosphate]
mass density (kg/m3): 1350.6

COMPOUND: CCCC[n+]1ccn(C)c1.O=S(=O)([N-]S(=O)(=O)C(F)(F)F)C(F)(F)F
mass density (kg/m3): 1422.5

COMPOUND: CCn1cc[n+](C)c1.O=S(=O)([N-]S(=O)(=O)C(F)(F)F)C(F)(F)F
mass density (kg/m3): 1499.5

COMPOUND: CCCCn1cc[n+](C)c1.F[B-](F)(F)F [1-butyl-3-methylimidazolium tetrafluoroborate]
mass density (kg/m3): 1187.7

* * *

- EXPERIMENTAL_SETUP: 322.31 K; 1000 kPa; Liquid
This listing pairs compounds with measured mass density.

COMPOUND: CCCC[n+]1ccn(C)c1.O=S(=O)([N-]S(=O)(=O)C(F)(F)F)C(F)(F)F
mass density / kg/m3: 1415.6
--
COMPOUND: CCCCn1cc[n+](C)c1.F[B-](F)(F)F [1-butyl-3-methylimidazolium tetrafluoroborate]
mass density / kg/m3: 1183.6
--
COMPOUND: CCCCn1cc[n+](C)c1.F[P-](F)(F)(F)(F)F [1-butyl-3-methylimidazolium hexafluorophosphate]
mass density / kg/m3: 1346.2
--
COMPOUND: CCOS(=O)(=O)[O-].CCn1cc[n+](C)c1 [1-ethyl-3-methylimidazolium ethyl sulfate]
mass density / kg/m3: 1225.6
